TARGET ENTITY: HLA DRB1*12:01 (Homo sapiens, UniProt P01903+P01911, A100R/A169T/D57E/D86V/F55L/H45Y/K41T/L162R/M171V/P40S/Q125H/Q178H/Q39Y/Q99D/R42G/S66L/T262R/V114A/V67L/W38E/Y59H/Y61H/Y89S)
EXPERIMENTAL DETAILS: biochemical
Assay type: binding
ASSAY SETUP: binder threshold 1,000 nM, read-out: In vitro (IC50 nM) DRB1*12:01
METRIC: IC50 (nM)
Give just the numeric value; nM need not be written.

Record summary for CC[C@H](C)[C@H](NC(=O)[C@H](CCSC)NC(=O)[C@H](CCSC)NC(=O)[C@H](CO)NC(=O)[C@H](Cc1ccccc1)NC(=O)[C@H](Cc1c[nH]cn1)NC(=O)[C@H](CCCCN)NC(=O)[C@H](CCCNC(=N)N)NC(=O)[C@H](CC(C)C)NC(=O)[C@H](Cc1ccc(O)cc1)NC(=O)[C@H](C)NC(=O)[C@@H](N)Cc1ccc(O)cc1)C(=O)N[C@@H](CC(C)C)C(=O)N[C@@H](CO)C(=O)N[C@@H](CC(=O)O)C(=O)O [Peptide 150] : reported IC50 = 96

The recorded IC50 for entry CC[C@H](C)[C@H](NC(=O)[C@@H]1CCCN1C(=O)[C@H](CCSC)NC(=O)[C@H](CC(C)C)NC(=O)[C@H](CC(C)C)NC(=O)[C@H](CO)NC(=O)[C@H](Cc1ccc(O)cc1)NC(=O)[C@H](Cc1ccc(O)cc1)NC(=O)[C@@H](N)CO)C(=O)N[C@@H](CC(C)C)C(=O)N[C@H](C(=O)N[C@@H](CC(C)C)C(=O)N[C@H](C(=O)N[C@@H](CCCNC(=N)N)C(=O)N[C@@H](C)C(=O)O)[C@@H](C)O)[C@@H](C)O equals 1350

The recorded IC50 for CC[C@H](C)[C@H](NC(=O)[C@@H](NC(=O)[C@@H]1CCCN1C(=O)[C@@H](NC(=O)[C@@H](NC(=O)[C@H](CC(N)=O)NC(=O)[C@H](CCCNC(=N)N)NC(=O)[C@H](CCCCN)NC(=O)[C@@H](NC(=O)[C@H](Cc1ccc(O)cc1)NC(=O)[C@H](C)NC(=O)[C@H](Cc1ccccc1)NC(=O)[C@H](CC(C)C)NC(=O)[C@H](C)N)[C@@H](C)O)C(C)C)[C@@H](C)CC)[C@@H](C)O)C(=O)N[C@H](C(=O)O)[C@@H](C)O is 756

Input CSCC[C@H](NC(=O)[C@H](CO)NC(=O)[C@H](Cc1ccccc1)NC(=O)[C@H](Cc1c[nH]cn1)NC(=O)[C@H](CCCCN)NC(=O)[C@H](CCCNC(=N)N)NC(=O)[C@H](CC(C)C)NC(=O)[C@H](Cc1ccc(O)cc1)NC(=O)[C@H](C)NC(=O)[C@H](Cc1ccc(O)cc1)NC(=O)[C@H](Cc1ccccc1)NC(=O)[C@H](CCC(=O)O)NC(=O)[C@H](CC(N)=O)NC(=O)[C@@H](NC(=O)[C@@H](N)Cc1ccccc1)C(C)C)C(=O)O . Output IC50: 2540

Value of measured IC50 for the entry CSCC[C@H](NC(=O)[C@@H](NC(=O)[C@@H]1CCCN1C(=O)[C@H](CC(C)C)NC(=O)[C@H](CC(N)=O)NC(=O)[C@H](Cc1ccc(O)cc1)NC(=O)[C@H](CCCNC(=N)N)NC(=O)[C@H](Cc1ccc(O)cc1)NC(=O)[C@H](Cc1ccc(O)cc1)NC(=O)[C@H](CC(=O)O)NC(=O)[C@H](Cc1ccc(O)cc1)NC(=O)[C@H](CC(=O)O)NC(=O)[C@@H](N)CO)[C@@H](C)O)C(=O)N[C@@H](CS)C(=O)N[C@@H](CC(=O)O)C(=O)O [Peptide 91] : 29600
